# target_or_test_system: T1, FBXL12, Q9NXK8
# T1 chain: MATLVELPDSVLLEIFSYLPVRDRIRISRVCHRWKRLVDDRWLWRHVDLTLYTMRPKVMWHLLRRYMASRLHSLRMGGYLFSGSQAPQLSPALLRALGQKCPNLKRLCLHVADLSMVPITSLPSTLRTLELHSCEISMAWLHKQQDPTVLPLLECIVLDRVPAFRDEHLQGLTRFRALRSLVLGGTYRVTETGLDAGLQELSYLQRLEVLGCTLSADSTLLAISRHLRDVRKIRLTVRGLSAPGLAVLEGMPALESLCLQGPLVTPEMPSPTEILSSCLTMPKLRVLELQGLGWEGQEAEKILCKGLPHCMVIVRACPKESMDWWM
# method_notes: median log2 fold change of GCK-ALFA target abundance (FLAG IP / Myc IP barcode read proportion) (log2 ratio); each designed protein is fused to an ALFA-tag nanobody in HEK293 cells to bring the named protein to FLAG-tagged glucokinase (GCK); Myc marks an untargeted standard; higher = target protein stabilised (more abundant)
# assay_context: target protein: 3xFLAG-MCP-GCK-ALFA reporter; HEK293 landing pad (RPLP)
Record Fulfilled whenever median log2 fold change is at -0.1 or higher; record Not fulfilled when lower.

{"binder": "FBXL12_hotspot_54_66 (protein) KTVTLVVRAETVEALRTTLATALAIAEGLLAAGITVRVEIRARSEDVLEATRLATRAAERLEALGAEDIRVEVEVETEEERREVERVAEEERRRERERRA", "group_label": "Not fulfilled"}
{"binder": "FBXL12_hotspot_16_22 (protein) KIMIIKVVAATPEAARGTIETATKIAKGLMEAGVDAVILQAVAEKEEILPFLKELVEEKEKELKEVAKKYGSKLEVFVGTAADLEELEKEVKEKEKELEA", "group_label": "Fulfilled"}
{"binder": "FBXL12_hotspot_127_8 (protein) SDIEVRVSVPTYQSYRYAVAILLEMLKIDVKNGGKNVEKLLEQLKALMEDAAKHLPKEDVLELLDEAIKSLKELKKESPEHKELFDKAIKYLEKLRKEVE", "group_label": "Not fulfilled"}
{"binder": "FBXL12_hotspot_23_44 (protein) MRLLRISLVEKPPEELRAGALYQAEVAALAILEGWEVEIEAEHPEAVAAAHAIARALREVTGKEVKVSRPLKPEERPLAEELLPELIAAIRAAIAAHRAR", "group_label": "Fulfilled"}
{"binder": "FBXL12_hotspot_59_79 (protein) MRRIIVRGEPEQVIKQTRALADALIALIDEHRGTPEQARLEDMLVGLFEETIKYAKEIGDVELLETIVELADRALPHVSPEYQKRIEELRKEALEAIKKL", "group_label": "Not fulfilled"}
{"binder": "FBXL12_hotspot_23_46 (protein) MRTLVIHLTEQSPEEMVKATYYATKLAYLAVKHGWEVVLRASDAVTAMAARIIAEEIERRTGKEVRVEAEERPETAEEAEELRPRFEEAVRKAIEEVEAE", "group_label": "Not fulfilled"}
{"binder": "FBXL12_hotspot_9_107 (protein) KTVLVTAYFEKEETVETTLKYAMEIALGLAEAGHKVRVLIGAKNEEILKKAKEILETKLKETVERLKELGVEIIFVSSEEEYEKKKKELLEEMEKEEEEA", "group_label": "Fulfilled"}
{"binder": "FBXL12_hotspot_78_94 (protein) MRKLVITIPEPVTPDEEARRRGVEYQAQAAIEALKAGWEVVISHADTPEAKRAALEILEKAVAETGDKEKIKSADGKNADEMLAELKAELAEEEARRAAA", "group_label": "Fulfilled"}
{"binder": "FBXL12_hotspot_16_23 (protein) KIMVVRVRGRTPEELRPTLDRAVEIAIGLMKAGVDAIIFVAVVERAEDLPAVEALVAERRAALEAAAKEHGSKLEVVVGVAADEEAVEARVKALEEELEA", "group_label": "Fulfilled"}
{"binder": "FBXL12_hotspot_59_80 (protein) MRVIRISGEPEQRIRQFELYSDALIELIKEHKGTPEAERLEEMLVGLFKYMLEVAKKEKNVELLETLVKQARKALPHVSPEYAKELEKIIKEAEKAIAEL", "group_label": "Not fulfilled"}
{"binder": "FBXL12_hotspot_141_10 (protein) RGLVIVIATAAVPEEVRAAVRAAAREAAAAAGVALRFEEAEDEEAAEELRERLLAEAEEEGYDAVGVLVLTSPEMSAERAIAYVRALVAFVAARVARLEA", "group_label": "Fulfilled"}
{"binder": "FBXL12_hotspot_186_34 (protein) MELKITLSEDMSVEQMEAGLKLAVEILQGLRDRELLDDLVAAARSLLKSLKENVARIKKPEFKEVAKKALEEVAKIVKEAAERFPEVEELKEVAKELEEA", "group_label": "Fulfilled"}
{"binder": "FBXL12_hotspot_59_76 (protein) MRRIILRGPPEQRRANLVAYSDALIKLIKEHKGTPEAERLEEMLVGLFEEALRQAEAERDRALLETLAEQVKKAIPFVSPEYAKRLEEILERIERALAEL", "group_label": "Not fulfilled"}
{"binder": "FBXL12_hotspot_59_73 (protein) MVEVVIRGPLEQAIEQALALLKAAAELIVKHEGTEKQERLVSIFISTLRELYRLAAEAGDEEAIEEADKIVKELMEKVDPETAAKLKAEREAIKKELAAA", "group_label": "Not fulfilled"}
{"binder": "FBXL12_hotspot_9_112 (protein) MTVILGVYAETEEELRRKLERALEYAEAALEAGWEVHIVVGAATPELAEAARRLLEEELGERVAELRARGAVIRVEETFEAARARREEIREEIERRAEEE", "group_label": "Not fulfilled"}
{"binder": "FBXL12_hotspot_186_30 (protein) MDLEVRVGLGEDLETTKSTLDYAVALAEALAARGLTASLVSLARSVRESAIEVLKKTKDEEIYEAILEALKRMAEIVKDNPEALAIVEEAIKEVEKLKKE", "group_label": "Fulfilled"}
{"binder": "FBXL12_hotspot_16_19 (protein) KDIILSVGVEEAERVEPSLELALEIVKGLKEAGVDRINVVIYAETEEAYKKIEELKDTILKEIEEAVKEAGGKLSVHKTKEAAEKEIERILEEIDKREEE", "group_label": "Fulfilled"}
